Target: human RXFP1 (Homo sapiens)
Test: hRXFP1 HEK293 cAMP assay (HTRF)
Settings: HEK293 cells stably expressing human RXFP1, 30 min at room temperature
YES if EC50 is below 0.07 µM. NO if not; exact matches included in NO.

Reference set (4 entries):
COc1ccc(/C=C/C(=O)N[C@H]2C[C@H](O)C2)cc1C(=O)N[C@@H]1C2CCC(/C2=C/C2CC2)[C@@H]1C(=O)Nc1ccc(F)c(C(F)(F)F)c1 (some centres unmarked) [Example 127]: NO
COc1ccc(C23CCC(C(C)(C)O)(CC2)CC3)cc1C(=O)N[C@H]1[C@@H](C(=O)Nc2ccc(F)c(C(F)(F)F)c2)[C@H]2CC[C@@H]1/C2=C\C1CC1 (single isomer, unassigned) [Example 276]: NO
COc1ccc(C2CC3CC(O)CC32)cc1C(=O)N[C@H]1[C@@H](C(=O)Nc2ccc(F)c(C(F)(F)F)c2)[C@H]2CC[C@@H]1/C2=C\C1CC1 (single isomer, unassigned) [Example 341]: NO
COc1ccc(CCC(C)(C)O)cc1C(=O)NC1C2CCC(/C2=C/C(C)C)[C@@H]1C(=O)Nc1ccc(F)c(C(F)(F)F)c1 (some centres unmarked) [Example 158]: YES

Now for another entry.
Query block: Criterion: EC50 strictly below 0.07 µM. Is it met by COC(=O)C1CC(c2ccc(OC)c(C(=O)N[C@H]3[C@@H](C(=O)Nc4ccc(F)c(C(F)(F)F)c4)[C@H]4CC[C@@H]3/C4=C\C(F)(F)F)c2)C1 (some centres unmarked) [Example 331] ?
Result block: NO

* * *

In this section, each of the molecules is paired with its reported EC50.
Target: human RXFP1 (Homo sapiens, UniProt Q9HBX9)
Sequence (Q9HBX9 whole entry): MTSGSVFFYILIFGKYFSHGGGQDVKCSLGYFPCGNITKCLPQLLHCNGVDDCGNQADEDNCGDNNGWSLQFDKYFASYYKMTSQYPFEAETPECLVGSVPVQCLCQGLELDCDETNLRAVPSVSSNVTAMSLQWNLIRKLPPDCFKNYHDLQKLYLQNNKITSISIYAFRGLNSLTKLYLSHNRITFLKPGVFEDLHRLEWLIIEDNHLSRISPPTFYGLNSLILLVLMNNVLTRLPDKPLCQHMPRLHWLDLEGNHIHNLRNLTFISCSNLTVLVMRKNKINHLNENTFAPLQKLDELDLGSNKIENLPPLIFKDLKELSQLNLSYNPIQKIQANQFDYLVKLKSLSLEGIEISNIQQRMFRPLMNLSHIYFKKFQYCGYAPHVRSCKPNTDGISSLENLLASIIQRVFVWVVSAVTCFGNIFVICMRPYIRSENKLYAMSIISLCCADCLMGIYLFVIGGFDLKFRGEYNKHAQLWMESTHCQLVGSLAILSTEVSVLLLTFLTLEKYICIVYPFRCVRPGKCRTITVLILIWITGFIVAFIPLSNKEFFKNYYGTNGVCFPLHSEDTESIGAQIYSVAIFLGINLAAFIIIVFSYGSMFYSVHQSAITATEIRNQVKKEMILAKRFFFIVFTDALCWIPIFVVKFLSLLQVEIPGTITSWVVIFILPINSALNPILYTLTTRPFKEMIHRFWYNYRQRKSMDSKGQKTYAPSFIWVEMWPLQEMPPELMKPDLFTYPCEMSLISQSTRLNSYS
Assay: hRXFP1 HEK293 cAMP assay (HTRF)
Conditions: HEK293 cells stably expressing human RXFP1, 30 min at room temperature
// note: answer is a bare numeric in nM

COc1ccc(S(=O)(=O)N2CCN(C)CC2CO)cc1C(=O)N[C@H]1[C@@H](C(=O)Nc2ccc(F)c(C(F)(F)F)c2)[C@H]2CC[C@@H]1/C2=C\C(F)(F)F (stereo partly drawn) [Example 218]: 714
COc1c(F)cc(C(=O)N2CC3(C2)CC(O)(C(F)(F)F)C3)cc1C(=O)N[C@H]1[C@@H](C(=O)N[C@H](C)C2(C)CC2)[C@H]2CC[C@@H]1/C2=C\C1CC1 [Example 372]: 5.9

Now consider the entry below.
Query block: May I ask what EC50 has been recorded for COc1ccc(CCC(C)(C)O)cc1C(=O)NC1C2CCC(/C2=C/CC(F)F)[C@@H]1C(=O)Nc1ccc(F)c(C(F)(F)F)c1 (stereo partly drawn) [Example 175] ?
Result block: 311

* * *

Biological target: human RXFP1 (Homo sapiens)
Experiment: hRXFP1 HEK293 cAMP assay (HTRF)
Conditions: HEK293 cells stably expressing human RXFP1, 30 min at room temperature
measured.attribute: EC50

COc1ccc(S(=O)(=O)CCO)cc1C(=O)N[C@H]1[C@@H](C(=O)Nc2ccc(F)c(C(F)(F)F)c2)[C@H]2CC[C@@H]1/C2=C\C(F)(F)F: 337 nM

Query block: May I ask what EC50 has been recorded for COc1c(F)cc(C(=O)N2CC(S(C)(=O)=O)C2)cc1C(=O)N[C@H]1[C@@H](C(=O)Nc2ccc(F)c(C(F)(F)F)c2)[C@H]2CC[C@@H]1/C2=C\C1CCCC1 ?
Result block: 2.8 nM

Query block: And the next one, COc1ccc(COCC2CC(F)(F)C2)cc1C(=O)N[C@H]1[C@@H](C(=O)Nc2ccc(F)c(C(F)(F)F)c2)[C@H]2CC[C@@H]1/C2=C\C1CC1 ?
Result block: 110 nM
